Kindly state TGI for each of the entries shown.
system: HOP-62 NSCLC; test: NCI tumour cell line growth inhibition, 48 h

Give the reported TGI for this compound. CC(C)CC1C(=O)NCCC(NC(=O)C(N)Cc2ccc(O)cc2)C(=O)NC(Cc2ccccc2)C(=O)NC(Cc2ccccc2)NC1=O (centres undefined) > 100 µM

Give the reported TGI for this compound. O=C1C(N2CCNCC2)=C(Cl)C(=O)c2ncccc21 > 10 µM

Give the reported TGI for this compound. O=C1c2ccccc2C(=O)c2c(Nc3ccc4c5c(cccc35)C(=O)c3ccccc3-4)cccc21 > 100 µM

Give the reported TGI for this compound. O=C1CCC(=O)N1Cc1ccccc1N=[N+]([O-])c1ccccc1CN1C(=O)CCC1=O > 100 µM
